Data export: MIC values recorded with NCTC KP 13442 (OXA-48).
MEASUREMENT TYPE: MIC

| COMPOUND STRING | TARGET UNDER TEST | MEASUREMENT TYPE | READOUT VALUE |
| --- | --- | --- | --- |
| C=CC1=C(C(=O)O)N2C(=O)[C@@H](NC(=O)/C(=N\OCC(=O)O)c3csc(N)n3)[C@H]2SC1 | NCTC KP 13442 (OXA-48) | MIC | 0.25 µg/mL |
| Nc1nc(/C(=C/CC(=O)O)C(=O)N[C@@H]2C(=O)N3C(C(=O)O)=CCS[C@H]23)cs1 | NCTC KP 13442 (OXA-48) | MIC | 0.25 µg/mL |
| C[C@@H](O)[C@H]1C(=O)N2C(C(=O)O)=C(SCCN=CN)C[C@H]12 | NCTC KP 13442 (OXA-48) | MIC | 2 µg/mL |
| C=CC1=C(C(=O)O)N2C(=O)[C@@H](NC(=O)/C(=N\O)c3csc(N)n3)[C@H]2SC1 | NCTC KP 13442 (OXA-48) | MIC | 32 µg/mL |
